Numbers sourced from ChEMBL document CHEMBL1629476.

# Tested on: Bacillus subtilis
# experiment.description: Antibacterial activity against Bacillus subtilis after 16 hrs by serial dilution method
# Type: functional
measurement.kind: MIC (µg/mL)
API: value field is a number in µg/mL; no unit string.

// known answers, use as guide
{"compound": "COc1cccc(NC(c2cccc(C)c2O)C2CCCCC2=O)c1 (configuration not stated)", "MIC / µg/mL": 1.61}
{"compound": "CCc1ccc(C(Nc2ccc(C)c([N+](=O)[O-])c2)C2CCCCC2=O)cc1 (configuration not stated)", "MIC / µg/mL": 6.25}
{"compound": "O=C1CCCCC1C(Nc1ccc(F)cc1F)c1ccc(F)cc1 (configuration not stated)", "MIC / µg/mL": 1.61}
{"compound": "CC(C)(C)c1ccc(NC(c2ccccc2)C2CCCCC2=O)cc1 (configuration not stated)", "MIC / µg/mL": 6.25}

[ask] Field request: MIC | item: C=CCOc1ccccc1C(Nc1cccc(F)c1)C1CCCCC1=O (configuration not stated)
[reply] 3.12

[ask] Field request: MIC | item: COc1ccc(F)c(C(Nc2ccc(F)cc2F)C2CCCCC2=O)c1 (configuration not stated)
[reply] 1.61

----------
The reader will find reported MIC values listed item by item below.
# System: Bacillus subtilis
# experiment.description: Antibacterial activity against Bacillus subtilis after 16 hrs by serial dilution method
# Format: functional
API: value field is a number in µg/mL; no unit string.

// known answers, use as guide
{"molecule": "CCc1ccc(C(Nc2cc(F)c(F)c(F)c2)C2CCCCC2=O)cc1 (stereo unspecified)", "measurement.kind": "MIC", "measurement.units": "µg/mL", "measured.result": 12.5}
{"molecule": "Cc1cc2cc(NC(c3ccncc3)C3CCCCC3=O)ccc2[nH]1 (stereo unspecified)", "measurement.kind": "MIC", "measurement.units": "µg/mL", "measured.result": 1.61}
{"molecule": "CO/N=C(\\C(=O)N[C@@H]1C(=O)N2C(C(=O)O)=C(CSc3nc(=O)c(O)nn3C)CS[C@H]12)c1csc(N)n1 [CEFTRIAXONE]", "measurement.kind": "MIC", "measurement.units": "µg/mL", "measured.result": 1.61}
{"molecule": "O=C1CCCCC1C(Nc1ccc(F)c(F)c1)c1ccccc1F (stereo unspecified)", "measurement.kind": "MIC", "measurement.units": "µg/mL", "measured.result": 1.61}

[ask] Field request: MIC | item: O=C1CCCCC1C(Nc1cccc2ccccc12)c1cc2ccccc2o1 (stereo unspecified)
[reply] 3.12

[ask] Field request: MIC | item: N#Cc1ccc(NC(c2ccccc2Cl)C2CCCCC2=O)cc1 (stereo unspecified)
[reply] 1.61
